Data credit: patent US10093631B2

# TARGET_ENTITY: URAT1 (SLC22A12) (Homo sapiens (Human))
# Sequence (Q96S37 whole entry): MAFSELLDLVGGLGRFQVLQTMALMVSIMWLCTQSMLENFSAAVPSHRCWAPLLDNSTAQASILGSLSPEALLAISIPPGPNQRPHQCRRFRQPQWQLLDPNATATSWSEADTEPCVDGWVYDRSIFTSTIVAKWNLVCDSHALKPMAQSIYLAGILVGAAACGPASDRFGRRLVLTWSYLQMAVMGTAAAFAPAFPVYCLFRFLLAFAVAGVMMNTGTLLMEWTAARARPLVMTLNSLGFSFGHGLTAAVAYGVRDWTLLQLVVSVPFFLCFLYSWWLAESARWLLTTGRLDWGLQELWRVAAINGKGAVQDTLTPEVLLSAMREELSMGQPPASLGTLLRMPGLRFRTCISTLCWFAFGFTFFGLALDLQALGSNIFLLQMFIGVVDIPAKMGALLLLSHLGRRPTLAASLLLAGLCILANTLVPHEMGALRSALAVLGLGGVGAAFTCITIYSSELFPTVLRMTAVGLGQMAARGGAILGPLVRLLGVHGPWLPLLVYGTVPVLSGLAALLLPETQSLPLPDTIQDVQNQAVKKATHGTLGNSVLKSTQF
# ASSAY_TEXT: URAT1 (SLC22A12) cellular uptake assay, 3H-orotate transport in stably transfected URAT-1/CHO cells
# Type: cell-based
pIC50: −log10 of the molar value.
READOUT_LABEL: pIC50

// below: answered compounds
>>> value("O=C(Nc1cc(F)c(O)c(F)c1)c1c(O)[nH]c(=O)[nH]c1=O")
"> 5.00"
>>> value("O=C(Nc1ccc(O)cc1F)c1c(O)[nH]c(=S)[nH]c1=O")
"> 5.00"

Attention now shifts to the item below.
Item: `O=C(Nc1ccc(F)cc1)c1c(O)[nH]c(=S)[nH]c1=O` | pIC50: > 5.00
